# assayedSystem: UniProtKB O15427
# assaySummary: Assay 3: MCT4-mediated lactate transport in MDA-MB-231 breast cancer cells
# Type: cell-based
# assayConditions: MDA-MB-231 cells; lactate transport
readoutLabel: IC50 (nM)

Some molecules with recorded IC50:
molecularString	assayedSystem	resultValue
CC(C)COc1cccc(-c2cc(COC(C)(C)C(=O)O)nn2-c2ccccc2N(C)C)c1	UniProtKB O15427	2.6
CC(C)(OCc1cc(-c2cccc(OC3CC3)c2)n(-c2ccccc2-n2cccn2)n1)C(=O)O	UniProtKB O15427	170
CCn1ncc2cccc(-n3nc(COC(C)(C)C(=O)O)cc3-c3cccc(OC4CC4)c3)c21	UniProtKB O15427	18

P: CCOc1ccccc1Cn1nc(COC(C)(C)C(=O)O)cc1-c1cc(OC)cc(OC)c1
Q: COc1cccc(-c2cc(CCC(C)(C)C(=O)O)nn2Cc2ccccc2Cl)c1
R: CCOc1cc(OCC)cc(-c2cc(COC(C)(C)C(=O)O)nn2-c2cccc3cnn(C)c23)c1
S: Cc1n[nH]c2cccc(-n3nc(COC(C)(C)C(=O)O)cc3-c3cccc(OC4CC4)c3)c12
T: COc1cccc(-c2cc(COC(C)(C)C(=O)O)nn2CC2CCOCC2)c1
**Q:** Hey, quick one: sort these by IC50, low to high? Reply format: the labels, ordered as requested.
**A:** P, R, Q, S, T
(P: 2.4 nM, R: 12 nM, Q: 127 nM, S: 240 nM, T: 535 nM)

* * *

# assayedSystem: MCT1 (Homo sapiens (Human))
# assaySummary: Assay 4: MCT1-mediated lactate transport in BT20 breast cancer cells
# Type: cell-based
# assayConditions: Table 27
readoutLabel: IC50 (nM)

Some compounds with recorded IC50:
molecularString	assayedSystem	resultValue
CC(C)COc1cccc(-c2cc(COC(C)(C)C(=O)O)nn2-c2ccccc2N(C)C)c1	MCT1 (Homo sapiens (Human))	28000
CC(C)(OCc1cc(-c2ccc3c(c2)OCCO3)n(Cc2ccccc2Cl)n1)C(=O)O	MCT1 (Homo sapiens (Human))	93000
Cn1ncc2ccc(-c3cc(COC(C)(C)C(=O)O)nn3Cc3ccccc3Cl)cc21	MCT1 (Homo sapiens (Human))	54000

a: CC(C)(OCc1cc(-c2cccc(OC3CC3)c2)n(-c2ccccc2C(F)(F)F)n1)C(=O)O
b: Cc1ccccc1-n1nc(COC(C)(C)C(=O)O)cc1-c1cccc(OC2CC2)c1
c: Cc1nn(C)c2c(-n3nc(COC(C)(C)C(=O)O)cc3-c3cccc(OCC(C)(C)C)c3)cccc12
**Q:** Sort by IC50, descending. Reply format: the labels, ordered as requested.
**A:** a, b, c
(a: 31000 nM, b: 15000 nM, c: 7300 nM)

I: CC[C@@](C)(OCc1cc(-c2cccc(OC3CC3)c2)n(-c2cccc3cnn(C)c23)n1)C(=O)O
II: COc1cc(OC)cc(-c2cc(COC(C)(C)C(=O)O)nn2Cc2ccccc2Cl)c1
**Q:** Of I versus II , which is the one with smaller reported IC50? Please respond with the label that marks your chosen entry.
**A:** I
(I: 18000 nM, II: 30000 nM)

P: CC(C)c1ccccc1-n1nc(COC(C)(C)C(=O)O)cc1-c1cccc(OC2CC2)c1
Q: CC(C)COc1cccc(-c2cc(COC(C)(C)C(=O)O)nn2Cc2cccc(N(C)C)c2)c1
**Q:** Of P versus Q , which is the one with smaller reported IC50? Please respond with the label that marks your chosen entry.
**A:** Q
(Q: 5200 nM, P: 22000 nM)

* * *

# assaySummary: Metabolic stability in rat liver microsomes (in vitro t1/2)
# Format: in vitro ADME
# assayConditions: rat liver microsomes, 60 min
readoutLabel: Rat microsome % 60 min (%)

Some compounds with recorded Rat microsome % 60 min:
molecularString	Rat microsome % 60 min [%]
Cn1ncc2cccc(-n3nc(COC(C)(C)C(=O)O)cc3-c3cccc(OCC4CCC4)c3)c21	81
CC(C)(OCc1cc(-c2cccc(OC3CC3)c2)n(-c2ccccc2Cl)n1)C(=O)O	94
COc1cc(OC)cc(-c2cc(COC(C)(C)C(=O)O)nn2Cc2ccccc2Cl)c1	73
CCn1ncc2ccc(-c3cc(CO[C@](C)(CC)C(=O)O)nn3Cc3ccccc3Cl)cc21	86

a: CCn1ncc2ccc(-c3cc(COC(C)(C)C(=O)O)nn3-c3ccccc3N3CCCC3)cc21
b: CCOc1ccccc1Cn1nc(COC(C)(C)C(=O)O)cc1-c1cccc(OC2CC2)c1
**Q:** Of a versus b , which is the one with smaller reported Rat microsome % 60 min? Please respond with the label that marks your chosen entry.
**A:** b

A: CCn1ncc2ccc(-c3cc(COC(C)(C)C(=O)O)nn3Cc3ccccc3Cl)cc21
B: CC(C)(OCc1cc(-c2cccc(OC3CC3)c2)n(Cc2ccccc2N2CCCC2)n1)C(=O)O
**Q:** // max by Rat microsome % 60 min over [ A , B ] Please respond with the label that marks your chosen entry.
**A:** A

* * *

# assayedSystem: MCT1 (Homo sapiens (Human))
# assaySummary: Assay 4: MCT1-mediated lactate transport in BT20 breast cancer cells
# Assay type: cell-based
# assayConditions: Table 27
readoutLabel: IC50 (nM)

Some compounds with recorded IC50:
molecularString	unitSymbol	IC50
CC(C)(OCc1cc(-c2cccc(OC3CC3)c2)n(Cc2ccccc2N2CCCC2)n1)C(=O)O	nM	23000
CC(C)Oc1ccc(-c2cc(COC(C)(C)C(=O)O)nn2Cc2ccccc2Cl)s1	nM	16000
CC[C@@H](OCc1cc(-c2cccc(OC)c2)n(Cc2ccccc2Cl)n1)C(=O)O	nM	11000
CC(C)Oc1ncc(-c2cc(COC(C)(C)C(=O)O)nn2Cc2ccccc2Cl)o1	nM	37000

1: Cc1nn(C)c2sc(-c3cc(COC(C)(C)C(=O)O)nn3Cc3ccccc3Cl)cc12
2: CCn1ncc2ccc(-c3cc(CO[C@](C)(CC)C(=O)O)nn3Cc3ccccc3Cl)cc21
**Q:** Of 1 versus 2 , which is the one with smaller reported IC50? Please respond with the label that marks your chosen entry.
**A:** 2
(2: 33000 nM, 1: 84000 nM)

a: COc1cc(OC)cc(-c2cc(COC(C)(C)C(=O)O)nn2-c2ccccc2N2CCC2)c1
b: CC(C)COc1ncc(-c2cc(COC(C)(C)C(=O)O)nn2Cc2ccccc2Cl)s1
**Q:** Of a versus b , which is the one with smaller reported IC50? Please respond with the label that marks your chosen entry.
**A:** b

* * *

# assayedSystem: MCT1 (Homo sapiens (Human), UniProt P53985)
# Sequence (P53985 whole entry): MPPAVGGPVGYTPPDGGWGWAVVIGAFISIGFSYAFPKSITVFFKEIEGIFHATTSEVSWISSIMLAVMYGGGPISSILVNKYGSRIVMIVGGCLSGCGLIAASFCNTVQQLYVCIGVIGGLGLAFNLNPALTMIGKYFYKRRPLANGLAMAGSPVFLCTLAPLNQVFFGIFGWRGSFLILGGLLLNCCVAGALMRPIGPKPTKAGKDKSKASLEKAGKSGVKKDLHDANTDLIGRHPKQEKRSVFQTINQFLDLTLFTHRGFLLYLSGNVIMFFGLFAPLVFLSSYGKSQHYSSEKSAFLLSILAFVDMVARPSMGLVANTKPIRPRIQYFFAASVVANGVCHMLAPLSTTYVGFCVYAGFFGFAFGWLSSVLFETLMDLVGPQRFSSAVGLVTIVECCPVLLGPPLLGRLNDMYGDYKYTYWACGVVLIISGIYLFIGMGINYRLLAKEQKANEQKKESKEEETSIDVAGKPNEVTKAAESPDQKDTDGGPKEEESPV
# Sequence (P35613 140-385 partner): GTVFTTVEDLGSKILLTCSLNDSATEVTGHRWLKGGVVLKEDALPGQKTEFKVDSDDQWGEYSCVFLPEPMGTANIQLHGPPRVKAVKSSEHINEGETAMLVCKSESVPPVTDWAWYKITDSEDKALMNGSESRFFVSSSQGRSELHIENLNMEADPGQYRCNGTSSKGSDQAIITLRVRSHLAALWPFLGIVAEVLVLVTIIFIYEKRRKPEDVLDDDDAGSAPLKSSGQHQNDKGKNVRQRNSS
# assaySummary: Assay 4: MCT1-mediated lactate transport in BT20 breast cancer cells
# Assay type: cell-based
# assayConditions: Table 27
readoutLabel: IC50 (nM)

P: COc1cc(OC)cc(-c2cc(COC(C)(C)C(=O)O)nn2-c2cccc(Cl)c2)c1
Q: CCn1ncc2cccc(-n3nc(COC(C)(C)C(=O)O)cc3-c3cccc(OCC(C)(C)C)c3)c21
R: Cn1ncc2cccc(-n3nc(COC(C)(C)C(=O)O)cc3-c3cccc(OCC4CC4)c3)c21
S: CC[C@@](C)(OCc1cc(-c2cccc(OCC(C)(C)C)c2)n(-c2cccc3cnn(C)c23)n1)C(=O)O
**Q:** List the 4 molecules shown above, ordered by increasing IC50. Reply format: the labels, ordered as requested.
**A:** P, S, Q, R

* * *

# assayedSystem: MCT4 (Homo sapiens (Human), UniProt O15427)
# Sequence (O15427 whole entry, looked up): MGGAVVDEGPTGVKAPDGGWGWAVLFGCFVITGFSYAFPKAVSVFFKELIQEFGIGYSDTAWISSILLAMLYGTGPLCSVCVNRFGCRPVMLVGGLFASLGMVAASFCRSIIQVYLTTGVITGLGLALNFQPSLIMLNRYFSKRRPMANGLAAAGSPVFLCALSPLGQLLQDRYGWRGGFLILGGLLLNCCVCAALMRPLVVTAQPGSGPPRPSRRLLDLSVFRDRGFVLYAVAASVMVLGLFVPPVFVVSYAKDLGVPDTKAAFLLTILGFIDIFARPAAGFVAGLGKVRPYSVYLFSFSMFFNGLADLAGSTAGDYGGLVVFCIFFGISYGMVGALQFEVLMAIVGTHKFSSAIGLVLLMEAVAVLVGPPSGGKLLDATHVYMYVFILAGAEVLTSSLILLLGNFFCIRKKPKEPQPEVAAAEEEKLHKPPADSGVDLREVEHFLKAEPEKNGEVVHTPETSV
# Sequence (P35613 whole entry partner, looked up): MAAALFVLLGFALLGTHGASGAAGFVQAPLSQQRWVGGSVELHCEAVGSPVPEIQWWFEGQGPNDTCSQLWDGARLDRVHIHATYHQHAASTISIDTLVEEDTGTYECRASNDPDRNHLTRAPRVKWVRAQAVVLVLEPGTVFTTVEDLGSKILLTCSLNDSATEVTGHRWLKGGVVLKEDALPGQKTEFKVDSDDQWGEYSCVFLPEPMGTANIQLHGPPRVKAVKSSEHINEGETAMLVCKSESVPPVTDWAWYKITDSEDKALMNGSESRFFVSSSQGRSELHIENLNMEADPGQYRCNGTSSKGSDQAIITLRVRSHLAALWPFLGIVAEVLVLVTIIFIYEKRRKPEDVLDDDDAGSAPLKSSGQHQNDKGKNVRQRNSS
# assaySummary: Assay 3: MCT4-mediated lactate transport in MDA-MB-231 breast cancer cells
# Format: cell-based
# assayConditions: MDA-MB-231 cells; lactate transport
readoutLabel: IC50 (nM)

Some molecules with recorded IC50:
molecule	unitSymbol	IC50
CCCn1ncc2ccc(-c3cc(COC(C)(C)C(=O)O)nn3-c3ccccc3N3CCC3)cc21	nM	3.1
CC(C)(OCc1cc(-c2ccc3c(c2)OCCO3)n(Cc2ccccc2Cl)n1)C(=O)O	nM	185
CC(C)COc1cccc(-c2cc(COC(C)(C)C(=O)O)nn2-c2cccc3cnn(C)c23)c1	nM	2

a: COc1cccc(-c2cc(COC(C)(C)C(=O)O)nn2CC(C)C)c1
b: COc1cc(OC)cc(-c2cc(COC(C)(C)C(=O)O)nn2-c2ccccc2N2CCC2)c1
**Q:** // max by IC50 over [ a , b ] Please respond with the label that marks your chosen entry.
**A:** a
(a: 1400 nM, b: 5.6 nM)

I: CC[C@](C)(OCc1cc(-c2cccc(OC)c2)n(Cc2ccccc2Cl)n1)C(=O)O [Example 218]
II: CCn1ncc2ccc(-c3cc(COC(C)(C)C(=O)O)nn3-c3cccc4cnn(C)c34)cc21
**Q:** // max by IC50 over [ I , II ] Please respond with the label that marks your chosen entry.
**A:** II
(II: 85 nM, I: 7.5 nM)

* * *

# assaySummary: Pharmacokinetic assay in rat (IV 3 mg/kg, PO 10 mg/kg)
# Format: in vivo
# assayConditions: plasma, Male Sprague-Dawley rat, volume of distribution, read-out: Rat Vss
readoutLabel: Vd (L/kg)

molecularString	resultValue
CC(C)(OCc1cc(-c2cccc(OC3CC3)c2)n(-c2ccccc2Cl)n1)C(=O)O	0.34
CC(C)(OCc1cc(-c2cccc(OC3CC3)c2)n(-c2ccccc2N2CCC2)n1)C(=O)O	0.15
CC(C)COc1cccc(-c2cc(COC(C)(C)C(=O)O)nn2-c2cccc3cnn(C)c23)c1	1.1
COc1cc(OC)cc(-c2cc(COC(C)(C)C(=O)O)nn2-c2ccccc2Cl)c1	0.3
CC(C)(OCc1cc(-c2cccc(OC3CCC3)c2)n(-c2ccccc2Cl)n1)C(=O)O	0.4

a: CCOc1cc(OCC)cc(-c2cc(COC(C)(C)C(=O)O)nn2-c2ccccc2Cl)c1
b: CCn1ncc2ccc(-c3cc(CO[C@](C)(CC)C(=O)O)nn3-c3ccccc3N3CCCC3)cc21
c: CCOc1ccccc1Cn1nc(CO[C@](C)(CC)C(=O)O)cc1-c1cc(OC)cc(OC)c1
**Q:** Sort by Vd, descending. Reply format: the labels, ordered as requested.
**A:** c, b, a
